propertyLabel: melting point

Answered examples (4):
compound	melting point
COC(=O)c1cccnc1C(=O)CC(=O)c1ccccc1	87 °C
O=C(CC(F)=C(F)F)NNC(=O)CC(F)=C(F)F	191 to 193 °C
CC(=O)Oc1cc2nc(-c3ccccc3)nn2c2ccccc12	200 to 202 °C
CC1CSC2=C(O1)c1cc(N3CCCCC3)ccc1C(=O)C2=O (stereo not drawn)	225 to 226 °C

List melting point for every entry below, keeping the order given.
1. CC1(C)CC1C(=O)NC(=CCCC(=O)O)C(=O)O (stereo not drawn)
2. CC(C)c1ccc2c(c1)c(SCC1CC1)c(CC(C)(C)C(N)=O)n2Cc1ccc(Cl)cc1
3. CSc1[nH]c(C(C)C)nc(=O)c1C#N
4. O=C1NC(=O)C(Nc2cccc3ccccc23)S1 (stereo not drawn)
5. Cc1csc2ncc(C(C)(O)CCc3ccccc3)n12 (stereo not drawn)

1. 163 to 165 °C
2. 137 to 138 °C
3. > 260 °C
4. 195 to 197 °C
5. 131 to 133 °C

Would you mind listing melting point for each of the following compounds?
1. COc1ccnc(CCc2nc3cc(-c4ccc(S(=O)(=O)N5CCN(c6ccc(C)cc6C)CC5)cc4)cnc3[nH]2)c1
2. CCOC(C)=CC(=O)Nc1ccc(Cl)c(Cl)c1
3. COc1ccccc1CN[C@H]1CCCN[C@H]1C(C)(C)C (relative stereo)
4. CC(C)(C)C1Cc2cc([N+](=O)[O-])ccc2N1 (stereo not drawn)

["208 to 209 °C", "126 °C", "> 251 °C", "110 to 112 °C"]

Report melting point for each item below.
1. CN1C(=O)[C@](C)(C(=O)O)Oc2ccccc21
2. Cc1cc(-c2cc(C(F)(F)F)n3ncc(-c4cccnc4)c3n2)ccc1C(F)(F)F
3. COc1ccccc1C(N)=CC#N
4. CCCn1c(=O)c2c(nc(C=Cc3ccc(C(=O)O)cc3)n2C)n(CCC)c1=O
5. CCCCCCCCCCCCCCCCCCOc1ccc(C(=O)OC)c(O)c1

1: 139 to 142 °C; 2: 177 °C; 3: 74 to 75 °C; 4: 215 to 217 °C; 5: 61 to 64 °C

For each of the items listed, what is its melting point?
1. O=S(=O)(c1ccccc1)c1c[nH]c2ccc(CCO)cc12
2. N#CC(=Cc1cc(O)c(O)c(C#N)c1)C(=O)Nc1cccc(Cl)c1
3. Cn1ncc2cc(/C=C/c3ccc(O)cc3)ccc2c1=O
4. CC(C)(C)OC(=O)CC(=O)c1ccc(C#N)cc1
5. CSC(=O)C(=O)c1ccc2oc(-c3ccccc3)cc2c1
6. CCC1=NN=C(c2ccc(OC)c(OC)c2)c2cc(OC)c(OC)cc2C1C (stereo not drawn)

["55 to 60 °C", "236 to 240 °C", "223 to 225 °C", "82 to 83 °C", "124 to 126 °C", "157 to 158 °C"]

Give me melting point for each of these compounds, listed below.
1. N#Cc1cc(-c2nc3cncnc3[nH]2)ccc1Oc1ccc(F)cc1
2. Cc1nc(-c2ccccc2)[nH]c1-c1cnc(-c2ccccc2)nc1
3. O=C1CCC(N2Cc3c(OCc4ccc(CN5CCC(O)CC5)cc4)cccc3C2=O)C(=O)N1 (stereo not drawn)
4. C[C@]1(COc2ccc(N3CCN(c4ccc(OC(F)(F)F)cc4)CC3)cc2)Cn2cc([N+](=O)[O-])nc2O1

1: > 250 °C; 2: 138 °C; 3: 204 to 206 °C; 4: 262 to 265 °C
